Target: T1, HLA-DP DPB1*04:01 (human)
T1 chain 1: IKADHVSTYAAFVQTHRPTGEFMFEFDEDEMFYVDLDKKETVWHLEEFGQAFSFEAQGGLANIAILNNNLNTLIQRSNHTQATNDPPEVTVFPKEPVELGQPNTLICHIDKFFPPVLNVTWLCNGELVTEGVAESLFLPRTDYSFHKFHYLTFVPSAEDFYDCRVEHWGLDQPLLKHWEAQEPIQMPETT
T1 chain 2: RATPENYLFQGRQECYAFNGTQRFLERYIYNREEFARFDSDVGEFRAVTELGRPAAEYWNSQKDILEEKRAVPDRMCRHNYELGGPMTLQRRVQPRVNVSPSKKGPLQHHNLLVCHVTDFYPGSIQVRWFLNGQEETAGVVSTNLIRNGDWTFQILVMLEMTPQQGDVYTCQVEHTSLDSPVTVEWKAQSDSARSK
Experiment: competition assay
Assay Metric: IC50 (nM)

Reported IC50 for QEVFKAIQSLKTTEV [ApoB100 peptide 3563.0024] was 16

Reported IC50 for VGSKLIVAMSSWLQK (agrees with the claims) [ApoB100 peptide 3563.0008] was 89

Reported IC50 for QIHQYIMALREEYFD [ApoB100 peptide 3563.0027] was 817

P. GKLYSILKIQSPLFT [ApoB100 peptide 3563.0016]
Q. FLIYITELLKKLQST [ApoB100 peptide 3563.0030]
Out of P and Q , name the one with the higher IC50. Provide the label of your selected option as the answer.
P

1. QELLDIANYLMEQIQ [ApoB100 peptide 3563.0003]
2. FLHYIFMENAFELPT [ApoB100 peptide 3563.0006]
Out of 1 and 2 , name the one with the higher IC50. Provide the label of your selected option as the answer.
1
(1: 2580 nM, 2: 32 nM)

P. LSQLQTYMIQFDQYI [ApoB100 peptide 3563.0012]
Q. KIVSLIKNLLVALKD [ApoB100 peptide 3563.0028]
Out of P and Q , name the one with the higher IC50. Provide the label of your selected option as the answer.
P

1. HVKHFVINLIGDFEV [ApoB100 peptide 3563.0014]
2. DKRLAAYLMLMRSPS [ApoB100 peptide 3563.0004]
Out of 1 and 2 , name the one with the higher IC50. Provide the label of your selected option as the answer.
2

a. IDLSIQNYHTFLIYI [ApoB100 peptide 3563.0029]
b. PALLALLALPALLLL (label printed as 3563.001) [ApoB100 peptide 3563.001]
// which entry reports the smaller IC50, a or b ? Provide the label of your selected option as the answer.
b
